- TARGET_ENTITY: Nonstructural protein 5A (Hepatitis C virus)
- ASSAY_NOTES: Inhibition of NS5A L31V mutant in HCV genotype 1a infected in HuH7 replicon cells assessed as decrease in viral replication after 3 days by RT-PCR method
- Type: cell-based
- CONDITION_PARAMETERS: Hepatitis C virus subtype 1a
Decision: EC90 beneath 5 pM gives 1; EC90 meeting or exceeding 5 pM gives -1.

Worked cases, answers included:
COC(=O)N[C@H](C(=O)N1CCC[C@H]1c1ncc(-c2cc(F)c3c(c2)O[C@@H](c2ccc(C4CC4)s2)n2c-3cc3cc(-c4cnc([C@@H]5CCCN5C(=O)[C@@H](NC(=O)OC)C5CCOCC5)[nH]4)ccc32)[nH]1)C(C)C; -1
CCCc1ccc([C@@H]2Oc3cc(-c4cnc([C@@H]5CCCN5C(=O)[C@@H](NC(=O)OC)C(C)C)[nH]4)cc(F)c3-c3cc4cc(-c5cnc([C@@H]6CCCN6C(=O)[C@@H](NC(=O)OC)[C@@H]6CCOC(C)(C)C6)[nH]5)ccc4n32)s1; -1
COC(=O)N[C@H](C(=O)N1CCC[C@H]1c1ncc(-c2cc(F)c3c(c2)O[C@@H](c2ccc4c(c2)OCCC4)n2c-3cc3cc(-c4cnc([C@@H]5CCCN5C(=O)[C@@H](NC(=O)OC)[C@@H]5CCOC(C)(C)C5)[nH]4)ccc32)[nH]1)C(C)C; 1
CCCc1ccc([C@@H]2Oc3cc(-c4cnc([C@@H]5CCCN5C(=O)[C@@H](NC(=O)OC)C(C)C)[nH]4)cc(F)c3-c3cc4cc(-c5cnc([C@@H]6CCCN6C(=O)[C@@H](NC(=O)OC)C6CCOCC6)[nH]5)ccc4n32)s1; 1
COC(=O)N[C@H](C(=O)N1CCC[C@H]1c1ncc(-c2cc(F)c3c(c2)O[C@@H](c2ccc(C4CC4)s2)n2c-3cc3cc(-c4cnc([C@@H]5CCCN5C(=O)[C@@H](NC(=O)OC)C5CC(C)(C)OC(C)(C)C5)[nH]4)ccc32)[nH]1)C(C)C; 1

A record lists "COC(=O)N[C@H](C(=O)N1CCC[C@H]1c1ncc(-c2cc(F)c3c(c2)O[C@@H](c2cc4ccccc4s2)n2c-3cc3cc(-c4cnc([C@@H]5CCCN5C(=O)[C@@H](NC(=O)OC)C5CCOCC5)[nH]4)ccc32)[nH]1)C(C)C" . Is its EC90 below 5 pM? -1

A record lists "COC(=O)N[C@H](C(=O)N1CCC[C@H]1c1ncc(-c2cc(F)c3c(c2)O[C@@H](c2ccc(C4CC4)s2)n2c-3cc3cc(-c4cnc([C@@H]5CCCN5C(=O)[C@@H](NC(=O)OC)[C@H]5CCOC(C)(C)C5)[nH]4)ccc32)[nH]1)C(C)C" . Is its EC90 below 5 pM? 1
